System: Wnt5a (protein binding on small-molecule microarray)
Experiment: Wnt5a binders on small-molecule microarray, primary screen, biophysical, 635/667 nm fluorescence (AID 1142);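 also: fluorescence read at 667 nm with signal to noise per printed feature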
Details: 635 nm fluorescence, higher = more signal
Kind request: treat -0.1 as inclusive, so composite z-score at -0.1 or higher is yes (1), anything lower is no (0).

compound: COc1ccc(O[C@H]2C=C[C@@H](c3ccccc3)O[C@@H]2CON=C2[C@H]3CCn4c(=O)n(-c5ccccc5)c(=O)n4[C@H]3[C@H](O)[C@@H]3O[C@H]23)cc1
test_target: Wnt5a (protein binding on small-molecule microarray)
category: yes (1)
--
compound: CO[C@H](C1CCCCC1)[C@H](C)C=CCC(=O)OCCCc1ccccc1
test_target: Wnt5a (protein binding on small-molecule microarray)
category: no (0)
--
compound: CCOC(=O)[C@H](CC(C)C)NC(=O)CCC1CC(OC(=O)NCc2ccc3c(c2)OCO3)CC2(CCCC(COC(=O)NCCCN3CCCC3=O)O2)O1 (some centres not stated)
test_target: Wnt5a (protein binding on small-molecule microarray)
category: yes (1)
--
compound: COc1ccc(COC(=O)NN=C2C[C@@H](O)[C@@H](O)[C@@H]3[C@@H]4C(=O)N(c5cccc(Oc6ccccc6)c5)C(=O)[C@@H]4CC[C@@H]23)cc1
test_target: Wnt5a (protein binding on small-molecule microarray)
category: no (0)
--
compound: CCCCC#C[C@@H]1C=C[C@H](Oc2ccc(C(=O)OC)cc2)[C@@H](COC(=O)OCC)O1
test_target: Wnt5a (protein binding on small-molecule microarray)
category: yes (1)
--
compound: CCOC(=O)[C@H](CC(C)C)NC(=O)CCC1CC(OC(=O)NCc2cccc3ccccc23)CC2(CCCC(COC(=O)NCc3cccc(C(F)(F)F)c3)O2)O1 (some centres not stated)
test_target: Wnt5a (protein binding on small-molecule microarray)
category: yes (1)

We now examine a further compound.
IN: Has CC(C)CON=C1C[C@@H](O)[C@@H](O)[C@@H]2[C@@H]3C(=O)N(C4CCCCC4)C(=O)[C@@H]3CC[C@@H]12 a recorded composite z-score greater than or equal to -0.1?
OUT: no (0)

Attribution: PubChem BioAssay
